Below: a set of entries, each annotated with reported abundance fitness.
B1: Tudor domain-containing protein 3, residues 554 to 611; numbered along this chain, Q9H7E2 (parent)
chain: KMWKPGDECFALYWEDNKFYRAEVEALHSSGMTAVVKFIDYGNYEEVLLSNIKPIQTE

Variants of: B1
Assay: abundance fitness (aPCA) (normalised: wild type 0, dead -1); higher = more abundant; growth selection in yeast, the domain comes from the species named
Conditions: Homo sapiens
Please respond with just the number, no unit label.

| Sequence Variant | abundance fitness |
| --- | --- |
| D7Y | -0.712 |

Q. Which abundance fitness reading was recorded for the variant `K53F` ?
A. -0.229

Q. Which abundance fitness reading was recorded for the variant `W3G` ?
A. -0.856

// provenance: the Human Domainome abundance scans (Beltran et al. 2025)
